# credit: ChEMBL document CHEMBL3045242

Test system: Bombyx mori
Test: Juvenile hormone like activity in fourth-instar larvae of Bombyx mori C137 x N137 assessed as induction of precocious metamorphosis applied topically
Assay type: functional
Readout Kind: ED50 (µg)
Numbers only; they are read as µg.

Worked cases, answers included:
[
  {
    "Chemical String": "c1ccc(COc2cccc(-c3cncn3Cc3ccccc3)c2)cc1",
    "Readout Kind": "ED50",
    "Test Value": 40
  },
  {
    "Chemical String": "CC(C)n1cncc1-c1ccccc1OCc1ccccc1",
    "Readout Kind": "ED50",
    "Test Value": 40
  },
  {
    "Chemical String": "Cn1cncc1-c1cccc(OCc2ccccc2)c1",
    "Readout Kind": "ED50",
    "Test Value": 60
  },
  {
    "Chemical String": "CC(C)n1cncc1-c1ccc(OCc2ccccc2)cc1",
    "Readout Kind": "ED50",
    "Test Value": 40
  },
  {
    "Chemical String": "CC(C)Cn1cncc1-c1ccc(Oc2ccccc2)cc1",
    "Readout Kind": "ED50",
    "Test Value": 55.5
  },
  {
    "Chemical String": "CCCn1cncc1-c1cccc(OCc2ccccc2)c1",
    "Readout Kind": "ED50",
    "Test Value": 21.1
  }
]

Below: the item to evaluate.
Problem: For the molecule CC(C)n1cncc1-c1cccc(Oc2ccccc2)c1 , what ED50 is on record?
Result: 21.6

====

Tested on: Bombyx mori
Experiment: Juvenile hormone like activity in fourth-instar larvae of Bombyx mori C137 x N137 assessed as induction of precocious metamorphosis applied topically
Type: functional
Please respond with Met when measured ED50 is strictly beneath 30 µg, and with Not met in all other cases.

[
  {
    "Chemical String": "CC(C)=CCC/C(C)=C/COc1cccc(-c2cncn2CC(C)C)c1",
    "Class Assignment": "Not met"
  },
  {
    "Chemical String": "CCCCn1cncc1-c1cccc(OCc2ccccc2)c1",
    "Class Assignment": "Not met"
  }
]

Problem: Take the compound CC(C)Cn1cncc1-c1cccc(OCc2ccccc2)c1 and say whether its ED50 is less than 30 µg.
Result: Met

Problem: Moving on to the next compound: CC(C)n1cncc1-c1cccc(O)c1
Result: Not met

====

Measured ED50, listed per entry.
Test system: Bombyx mori
Assay: Juvenile hormone like activity in fourth-instar larvae of Bombyx mori C137 x N137 assessed as induction of precocious metamorphosis applied topically
Type: functional
Please respond with the number in µg and leave the unit unwritten.

Recorded ED50, per entry:
[
  {
    "Chemical String": "CCn1cncc1-c1cccc(OCc2ccccc2)c1",
    "Readout Kind": "ED50",
    "Test Value": 30.2
  },
  {
    "Chemical String": "CC(C)(C)Cn1cncc1-c1cccc(OCc2ccccc2)c1",
    "Readout Kind": "ED50",
    "Test Value": 40
  },
  {
    "Chemical String": "CC(C)n1cncc1-c1cccc(OCc2ccccc2)c1",
    "Readout Kind": "ED50",
    "Test Value": 0.9
  }
]

Switching to the query record.
Problem: Name the recorded ED50 for CC(C)Cn1cncc1-c1cccc(Oc2ccccc2)c1 .
Result: 14.7
